MEASURED_ON: T1, recombinant human TL1A (human, UniProt O95150 71-251)
T1 construct: homotrimer; biotinylated for SPR capture; the ELISA paragraphs say only 'recombinant TL1A'; also called TNFSF15
T1 chain: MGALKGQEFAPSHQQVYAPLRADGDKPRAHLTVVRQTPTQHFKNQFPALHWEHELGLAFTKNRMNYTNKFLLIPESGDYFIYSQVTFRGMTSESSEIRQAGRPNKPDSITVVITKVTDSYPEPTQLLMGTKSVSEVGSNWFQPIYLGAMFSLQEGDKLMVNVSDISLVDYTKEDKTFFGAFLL
ASSAY_EXPLANATION: competition ELISA vs bio-TL1A-0002
MEASURED_QUANTITY: IC50
Answer by giving the amount and then stating its unit.

Could you report IC50 for every entry in the following list?
1. TL1A-0022 (antibody, IgG1, V domains shown, IgG1/kappa variant of TL1A-0002) VH: QVQLVQSGAEVKKPGASVKVSCKASGYDFTYYGISWVRQAPGQGLEWMGWISTYNGNEHYARMLQGRVTMTTDTSTRTAYMELRSLRSDDTAVYYCARENYYGSGAYRGGMDVWGQGTTVTVSS VL: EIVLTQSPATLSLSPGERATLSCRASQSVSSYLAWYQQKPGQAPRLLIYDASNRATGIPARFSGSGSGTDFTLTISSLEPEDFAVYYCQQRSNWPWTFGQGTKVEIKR
2. TL1A-0062 (antibody, IgG1, V domains shown, IgG1/kappa variant of TL1A-0002) VH: QVQLVQSGAEVKKPGASVKVSCKASGYDYTYYGISWVRQAPGQGLEWMGWISTYNGNTHYARMLQGRVTMTTDTSTRTAYMELRSLRSDDTAVYYCARENYYGSGAYRGGMDVWGQGTTVTVSS VL: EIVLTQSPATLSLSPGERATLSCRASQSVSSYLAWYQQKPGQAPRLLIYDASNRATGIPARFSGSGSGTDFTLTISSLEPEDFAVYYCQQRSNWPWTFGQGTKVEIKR

Result:
6.9 nM
4 nM

For TL1A-0014 (antibody, IgG1, V domains shown, IgG1/kappa variant of TL1A-0002) VH: QVQLVQSGAEVKKPGASVKVSCKASGYDFTYYGISWVRQAPGQGLEWMGWISTYNGNTHYAQKLQGRVTMTTDTSTRTAYMELRSLRSDDTAVYYCARENYYGSGAYRGGMDVWGQGTTVTVSS VL: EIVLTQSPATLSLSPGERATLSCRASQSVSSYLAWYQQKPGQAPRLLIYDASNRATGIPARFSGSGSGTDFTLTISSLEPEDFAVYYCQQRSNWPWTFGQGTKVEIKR the binder record lists IC50 as 5.1 nM
